Assay: Oral pharmacokinetics of TAF alone or in combination with dolutegravir in male beagle dogs (plasma, LC/MS)
Settings: male, beagle, dog, in vivo, po, 5 mg/kg, AUC0-24hr, TAF in plasma, Day 1, TAF 5 mg/kg oral alone, fasted male beagle dogs, mean n=6
measured-parameter: AUC(0-t) (µM·h)
Numbers only, in µM·h.

In: Check the records and state AUC(0-t) for CC(C)OC(=O)[C@H](C)N[P@](=O)(CO[C@H](C)Cn1cnc2c(N)ncnc21)Oc1ccccc1 [TAF]
Out: 0.174

###

Test: Oral pharmacokinetics of TAF alone or in combination with dolutegravir in male beagle dogs (plasma, LC/MS)
Conditions: male, beagle, dog, in vivo, po, 5 mg/kg, Cmax, TAF in plasma, Day 1, TAF 5 mg/kg oral alone, fasted male beagle dogs, mean n=6
measured-parameter: Cmax

In: Retrieve Cmax measured for CC(C)OC(=O)[C@H](C)N[P@](=O)(CO[C@H](C)Cn1cnc2c(N)ncnc21)Oc1ccccc1 and print it.
Out: 412 nM
